Experiment: Pharmacokinetics after intravenous and oral administration in rats
Format: in vivo, rat
Details: rat, plasma, iv dosing, dose 1 mg/kg
MEASURED PARAMETER: half-life (min)
Output spec: scalar in min, unitless text.

Take a look at these entries with their results.
{"STRUCTURE NOTATION": "CC[C@H](Nc1ncnc(N)c1-c1nnc(C)o1)c1nc2cccc(F)c2c(=O)n1-c1ccccc1", "RESULT NUMBER": 40.2}
{"STRUCTURE NOTATION": "CC[C@H](Nc1ncnc(N)c1-c1nnc(C)o1)c1nc2cccc(C)c2c(=O)n1-c1ccccc1C", "RESULT NUMBER": 42}

Q) Can you share its half-life? I mean this molecule: CC[C@H](Nc1ncnc(N)c1-c1ncn(C)n1)c1nc2cccc(C)c2c(=O)n1C1CC1
A) 53.4

Q) Can you share its half-life? I mean this molecule: C[C@H](Nc1ncnc(N)c1-c1nnn(C)n1)c1nc2cccc(Cl)c2c(=O)n1C1CC1
A) 54.6

Q) Can you share its half-life? I mean this molecule: CC[C@H](Nc1ncnc(N)c1-c1ncn(C)n1)c1nc2cccc(Cl)c2c(=O)n1-c1ccccc1F
A) 58.2

Q) Can you share its half-life? I mean this molecule: Cc1noc(-c2c(N)ncnc2N[C@@H](C)c2nc3cccc(Cl)c3c(=O)n2C2CC2)n1
A) 65.4

Q) Can you share its half-life? I mean this molecule: CC[C@H](Nc1ncnc(N)c1-c1noc(C)n1)c1nc2ccccc2c(=O)n1-c1ccccc1F
A) 63

Q) Can you share its half-life? I mean this molecule: Cc1nc(-c2c(N)ncnc2N[C@@H](C)c2nc3cccc(Cl)c3c(=O)n2C2CC2)no1
A) 432

* * *

Assay: Pharmacokinetics after intravenous and oral administration in rats
Format: in vivo, rat
Conditions: rat, plasma, iv dosing, dose 1 mg/kg
Rule: class 1 for AUC(0-t) not less than 200 ng·h/mL, class 0 for anything less.

Please review the following examples before continuing.
{"STRUCTURE NOTATION": "CC[C@H](Nc1ncnc(N)c1-c1noc(C)n1)c1nc2ccccc2c(=O)n1-c1ccccc1F", "CLASS": "class 0"}
{"STRUCTURE NOTATION": "CC[C@@H](Nc1ncnc(N)c1-c1nc(C)no1)c1nc2cccc(Cl)c2c(=O)n1C1CC1", "CLASS": "class 0"}
{"STRUCTURE NOTATION": "CC[C@H](Nc1ncnc(N)c1-c1ccn(C)n1)c1nc2cccc(Cl)c2c(=O)n1C1CC1", "CLASS": "class 1"}
{"STRUCTURE NOTATION": "CC[C@H](Nc1ncnc(N)c1-c1ccon1)c1nc2cccc(Cl)c2c(=O)n1C1CC1", "CLASS": "class 1"}
{"STRUCTURE NOTATION": "C[C@H](Nc1ncnc(N)c1-c1ncn(C)n1)c1nc2cccc(Cl)c2c(=O)n1C1CC1", "CLASS": "class 1"}

Q) Decide: is the reported value of AUC(0-t) for CC[C@H](Nc1ncnc(N)c1-c1nc(C)no1)c1nc2cccc(Cl)c2c(=O)n1-c1ccccc1 equal to or greater than 200 ng·h/mL?
A) class 1

Q) Decide: is the reported value of AUC(0-t) for CC[C@H](Nc1ncnc(N)c1-c1nc(C)no1)c1nc2ccccc2c(=O)n1-c1ccccc1F equal to or greater than 200 ng·h/mL?
A) class 0

Q) Decide: is the reported value of AUC(0-t) for CC[C@H](Nc1ncnc(N)c1C1=N[C@@H](C)CO1)c1nc2cccc(Cl)c2c(=O)n1-c1ccccc1 equal to or greater than 200 ng·h/mL?
A) class 0
